Attribution: ChEMBL document CHEMBL1140940

Test: Clearance in monkey at 2 mg/kg, iv
Format: ADME, organism-based, Macaca mulatta
Design: dose 2 mg/kg, route intravenous
Details: rhesus monkey, in vivo
Readout: clearance (mL/min/kg)
// return numeric value only (unit: mL/min/kg, not printed)

Field request: clearance | item: "CONC(=O)c1cn(-c2ccc3c(c2)CCC3)c2nc(Nc3ccc(C4CCN(C)CC4)cc3)ncc2c1=O"
48.7

* * *

Experiment: Metabolic stability in rat liver microsomes after 10 mins
Format: ADME, Microsome
Details: read-out: Stability
Readout: remaining at 10 min (%)
// return numeric value only (unit: %, not printed)

Field request: remaining at 10 min | item: "CONC(=O)c1cn(-c2ccc3c(c2)CCC3)c2nc(Nc3ccc(C4CCN(C)CC4)cc3)ncc2c1=O"
96

Also "CONC(=O)c1cn(-c2ccc3c(c2)CCC3)c2nc(Nc3ccc(CCN4CCNC(=O)C4)cc3)ncc2c1=O" , if possible.
69

Also "CNC(=O)c1cn(-c2ccc3c(c2)CCC3)c2nc(Nc3ccc(CCN4CCOCC4)cc3)ncc2c1=O" , if possible.
100

Also "CONC(=O)c1cn(-c2ccc3c(c2)CCC3)c2nc(Nc3ccc(CCS(=O)(=O)NC(C)=O)cc3)ncc2c1=O" , if possible.
83
